# ASSAY SYSTEM: human HAQ STING isoform (hSTING HAQ) (Homo sapiens, UniProt Q86WV6, G230A/H232R/R293Q/R71H)
# Construct: THP1 cells express the naturally occurring human HAQ STING isoform (hSTING HAQ); host or cells: THP1
# Sequence (Q86WV6 whole entry R71H/G230A/H232R/R293Q, canonical isoform): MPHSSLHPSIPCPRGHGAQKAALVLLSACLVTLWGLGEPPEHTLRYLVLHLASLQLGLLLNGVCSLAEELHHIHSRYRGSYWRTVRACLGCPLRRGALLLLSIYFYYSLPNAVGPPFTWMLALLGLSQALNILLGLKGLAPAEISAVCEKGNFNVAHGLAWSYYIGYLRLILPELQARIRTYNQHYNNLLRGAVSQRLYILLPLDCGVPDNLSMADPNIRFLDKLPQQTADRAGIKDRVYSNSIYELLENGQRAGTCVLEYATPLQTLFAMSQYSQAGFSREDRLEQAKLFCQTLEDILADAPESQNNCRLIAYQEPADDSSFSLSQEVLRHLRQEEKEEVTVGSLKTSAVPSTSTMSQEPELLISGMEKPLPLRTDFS
# ASSAY PROTOCOL: IFN-β mRNA level in THP1 cells (qPCR, STING agonist cellular activity)
# Type: cell-based
# CONDITIONS: compound at 3.6 μM, 2 hrs, IFNβ expression normalized against GAPDH by the 2^-ΔΔCT method, DMSO = 1.0
OUTCOME MEASURE: Relative mRNA INFβ/GAPDH THP 1
Response field accepts a number only; no unit should be typed.

See these solved cases before continuing.
INSERT INTO assay_data (compound, number) VALUES
  ('COc1cc(CN(Cc2cn3c4c(c(N5CC6(CCNCC6)C5)c(F)cc4c2=O)OCC3C)[C@H]2CCCN(c3ccc(N)nc3)C2)ccn1 (stereo partly drawn)', 437.3),
  ('COc1cc(CN(Cc2cn3c4c(c(F)c(F)cc4c2=O)OCC3)[C@H]2CCCN(c3cnccn3)C2)ccn1', 0.9);

// Relative mRNA INFβ/GAPDH THP 1 lookup, key: COc1cc(CN(Cc2cn3c4c(c(N5CC6(CCN(C)CC6)C5)c(F)cc4c2=O)OCC3C)[C@H]2CCCN(c3ccc(N)nc3)C2)ccn1 (stereo partly drawn)
595.1
